Give measured growth for each item. Keep answers brief.
system: SK-OV-3 ovarian; assay: NCI-60 one-dose screen, 48 h (100 = growth as untreated, 0 = no growth, -100 = all killed); settings: 10 µM unless noted
This is part of a sample that, as a whole, favours compounds with a hit. Of some 83,000 tested, about 20% had one in any assay.
Express the result in % but write the number alone.

q: // growth lookup, key: CC1=CC(c2ccco2)=C2C(N)=NNC2N1 (stereo not given)
a: 101

q: // growth lookup, key: C=C(CNCCO)[C@@H]1CC[C@]2(CO)CC[C@]3(C)[C@H](CC[C@@H]4[C@@]5(C)CCC(N)C(C)(C)[C@@H]5CC[C@]43C)[C@@H]12 (stereo not given in full)
a: 95.2

q: // growth lookup, key: `O=C(Cc1ccc(NC(=O)c2cccc(Cl)c2)cc1)NCc1ccccc1`
a: 57.6

q: // growth lookup, key: CCCn1cnc2c(c1=N)C(c1ccc(F)cc1)c1sc3c(F)cccc3c1O2 (stereo not given)
a: 71

q: // growth lookup, key: `COc1cccc(Nc2ncnc3cc(NC(=O)CCl)ccc23)c1`
a: -15.9

----------
tested on: M14 melanoma; test: NCI-60 one-dose screen, 48 h; settings: 10 µM unless noted
About 83,000 compounds went through this panel and 20% of them were active in at least one assay; those are over-represented in the sample as a whole. Active and inactive are the calls of the source. Rule for the calls: active = growth percent below 10; inactive = the rest.
Just give me one of these, please: class 1 = active, class 0 = inactive

q: Name the outcome recorded for `O=C(NNc1cnccn1)c1nc2cc(F)ccc2n2cccc12` in the assay.
a: class 1

q: Name the outcome recorded for `C=C1C(=O)O[C@H]2[C@H]1CC/C(COC(=O)c1ccc(C(=O)O)s1)=C\CC[C@@]1(C)O[C@@H]21` in the assay.
a: class 0

q: Name the outcome recorded for `O=C(O)/C=C/C(=O)Nc1cccc(Cn2nnc3cc(Cl)c(Cl)cc32)c1` in the assay.
a: class 0

q: Name the outcome recorded for `C=C1C(=O)O[C@H]2[C@H]1CC/C(COC(=O)/C=C\C(=O)NCc1ccc(Cn3c(=O)sn(CCCCC)c3=O)cc1)=C\CC[C@@]1(C)O[C@@H]21` in the assay.
a: class 0

q: Name the outcome recorded for `CCOC(=O)C#Cc1c(C(=O)OCC)nnn1Cc1ccc(C(F)(F)F)cc1` in the assay.
a: class 0

q: Name the outcome recorded for `CS(=O)(=O)c1nnc(-c2ccccc2)s1` in the assay.
a: class 0

q: Name the outcome recorded for `CCOC(=O)c1c(C)nc2c(c1N)CC(=O)N2Cc1ccc(OC)cc1` in the assay.
a: class 0

q: Name the outcome recorded for `CCN(CC)CCCN1C(=O)c2c(c(C)c3c(oc4ccc(OC)cc43)c2C)C1=O` in the assay.
a: class 0

q: Name the outcome recorded for CCN1C(=O)N(CC)C2C1NN=c1s/c(=C\c3ccc(C(F)(F)F)cc3)c(=O)n12 (configuration not stated) in the assay.
a: class 1

q: Name the outcome recorded for `COc1ccc(Cn2cc(C(=O)N=Nc3c(O)[nH]c4c(C)cccc34)nn2)cc1` in the assay.
a: class 0

q: Name the outcome recorded for `N#Cc1c(Nc2ccc(N3CCOCC3)cc2)nc(SCC(=O)c2ccc(Br)cc2)nc1-c1ccccc1` in the assay.
a: class 0

q: Name the outcome recorded for `CCOC(=O)C1=C(C)C(Cl)=N/C1=C\c1[nH]c(Cl)c(C)c1C(=O)OCC` in the assay.
a: class 0

q: Name the outcome recorded for `C#CCOc1cccc(-c2ncnc3cc(NC(=O)C=C)ccc23)c1` in the assay.
a: class 0

q: Name the outcome recorded for `Cc1ccc2c(=O)cc(C(=O)Nc3sc4c(c3C(=O)NCc3cccnc3)CCCC4)oc2c1C` in the assay.
a: class 0

q: Name the outcome recorded for C#CC#CC#CC#CC#CC#CC#CC#CCC1OC[C@H](COC(=O)O[C@@H](C(=O)O[C@H]2C[C@@]3(O)[C@@H](OC(=O)c4ccccc4)[C@@H]4[C@]5(OC(C)=O)CO[C@@H]5C[C@H](O)[C@@]4(C)C(=O)[C@H](OC(C)=O)C(=C2C)C3(C)C)[C@@H](NC(=O)c2ccccc2)c2ccccc2)O1 (some centres not stated) in the assay.
a: class 1

q: Name the outcome recorded for Nc1nc(N)c2c(n1)NC(c1cccc(Nc3ccnc4cc(C(F)(F)F)ccc34)c1)CC(c1ccccc1)=N2 (configuration not stated) in the assay.
a: class 0

q: Name the outcome recorded for CCN1C(=O)N(CC)C2Nn3c(s/c(=C\c4ccccc4Br)c3=O)=NC21 (configuration not stated) in the assay.
a: class 1

----------
tested on: ACHN renal; experiment: NCI-60 one-dose screen, 48 h (100 = growth as untreated, 0 = no growth, -100 = all killed); settings: 10 µM unless noted
This is part of a sample that, as a whole, favours compounds with a hit. Of some 83,000 tested, about 20% had one in any assay.
Give measured growth for each item. Keep answers brief.
Express the result in % but write the number alone.

q: API: value(readout= growth, system= ACHN renal, query= `C=C1C(=O)O[C@H]2[C@H]1CC/C(COC(=O)/C=C/C(=O)OC/C1=C/CC[C@@]3(C)O[C@H]3[C@H]3OC(=O)C(=C)[C@@H]3CC1)=C\CC[C@@]1(C)O[C@@H]21` )
a: -13.5

q: API: value(readout= growth, system= ACHN renal, query= `Cc1ccc2nc(NC(=O)CSc3nc(-c4ccccc4)c(C#N)c4nnnn34)sc2c1` )
a: 106

q: API: value(readout= growth, system= ACHN renal, query= `Cc1ccc2c(=O)cc(C(=O)Nc3sc4c(c3C(=O)NCc3cccnc3)CCCC4)oc2c1C` )
a: 96.8

q: API: value(readout= growth, system= ACHN renal, query= CCN1C(=O)N(CC)C2C1NN=c1s/c(=C\c3ccc[nH]3)c(=O)n12 (stereo not drawn) )
a: 42.3

q: API: value(readout= growth, system= ACHN renal, query= `CN1C(=O)/C(=C2\SC(=Nc3ccccc3)N(Nc3ccccc3)C2=O)c2ccccc21` )
a: 95.3

q: API: value(readout= growth, system= ACHN renal, query= `Cn1c(=O)c2[nH]c(SCC(=O)Nc3ccc(C(=O)/C=C/c4ccccc4Cl)cc3)nc2n(C)c1=O` )
a: 99

q: API: value(readout= growth, system= ACHN renal, query= `COc1ccc(-c2nn(-c3ccccc3)cc2/C=C/C(=O)NNC(=O)Nc2ccc(C)cc2)cc1` )
a: 102

q: API: value(readout= growth, system= ACHN renal, query= COc1ccc(/C=C/C(c2cc(OC)c(OC)c(OC)c2)n2cncn2)cc1 (stereo not drawn) )
a: 57.5

----------
tested on: SK-MEL-2 melanoma; experiment: NCI-60 one-dose screen, 48 h (100 = growth as untreated, 0 = no growth, -100 = all killed); conditions: 10 µM unless noted
About 83,000 compounds went through this panel and 20% of them were active in at least one assay; those are over-represented in the sample as a whole.
Give measured growth for each item. Keep answers brief.
Express the result in % but write the number alone.

q: // growth lookup, key: `Cc1n[nH]c2ccc(Br)cc2c1=O`
a: 99.4

q: // growth lookup, key: CCOC(=O)c1nn(CC(O)c2ccccc2)c(NC(=O)Nc2cccc(F)c2)c1C (stereo not given)
a: 95

q: // growth lookup, key: Nc1nc(N)c2c(n1)NC(c1cccc(Nc3ccnc4cc(C(F)(F)F)ccc34)c1)CC(c1ccc(Br)cc1)=N2 (stereo not given)
a: 52.4

q: // growth lookup, key: O=C(/C=C/C12c3ccccc3C(c3ccccc31)C1C(=O)NC(=O)C12)c1ccc(Br)cc1 (stereo not given)
a: 52.2

q: // growth lookup, key: `Cc1ncc(C(=O)Nc2ccc(CN3CCN(C)CC3)c(C(F)(F)F)c2)cc1C#Cc1cnc(N)c2ncccc12`
a: -29.8

q: // growth lookup, key: `COc1ccc(C(=O)N2c3ccccc3Sc3ccccc32)c(C(F)(F)F)c1`
a: 47

q: // growth lookup, key: `CCCCCCCCCCCCCOC(=O)c1c(C)[nH]c(/C=C2\N=C(c3ccc[nH]3)C=C2OC)c1C`
a: -42.1

q: // growth lookup, key: `O=C(O)COc1ccc(Cl)c(Cl)c1`
a: 118

q: // growth lookup, key: `COc1ccc(/C=C2\CN(C(=O)C(Cl)Cl)C/C(=C\c3ccc(OC)cc3)C2=O)cc1`
a: 68.6

q: // growth lookup, key: `N#Cc1c(Nc2ccc(N3CCOCC3)cc2)nc(SCC(=O)c2ccc(Br)cc2)nc1-c1ccccc1`
a: 94.4

----------
System: NCI-H23 lung
Assay: NCI-60 one-dose screen, 48 h
Settings: 10 µM unless noted
Method: Growth inhibition of the NCI-H23 human Non-Small Cell Lung tumor cell line is measured as a screen for anti-cancer activity. Cells are grown in 96 well plates and exposed to the test compound for 48 hours. Compounds are tested at a single concentration, which is 10^-5 M for most compounds. The reported endpoint is percent growth (GI% or GIPRCNT), where numbers from 0 - 100% represent growth inhibition, and numbers from -100% - 0 represent cell death. […]
About 83,000 compounds went through this panel and 20% of them were active in at least one assay; those are over-represented in the sample as a whole. The source made the active and inactive calls. The calls were made as follows: active = growth percent below 10; inactive = the rest.
Just give me one of these, please: label 1 = active, label 0 = inactive

q: Name the outcome recorded for `Fc1ccc2[nH]cc(-c3nc(-c4c[nH]c5ccncc45)cs3)c2c1` in the assay.
a: label 0

q: Name the outcome recorded for `O=[N+]([O-])c1cc(NS(=O)(=O)c2ccccc2)ccc1NS(=O)(=O)c1ccccc1` in the assay.
a: label 0

q: Name the outcome recorded for `CC(=C(c1ccc(OCCN2CCCCC2)cc1)c1ccc(OCCN2CCCCC2)cc1)c1ccc(Cl)cc1` in the assay.
a: label 1

q: Name the outcome recorded for `Cc1ccc(CNc2ccc3nc(CCC(C)C)[nH]c3c2)cc1` in the assay.
a: label 0

q: Name the outcome recorded for `CCOC(=O)c1c(C)c2c(n1Cc1ccccc1)CSCC2=O` in the assay.
a: label 1

q: Name the outcome recorded for `CN1C(=O)/C(=C/c2ccc(C(=O)Nc3ncc(Cc4cccc(Cl)c4)s3)cc2)SC1=S` in the assay.
a: label 0

q: Name the outcome recorded for CC1C(/C=N/NC(N)=S)C(C#N)(C#N)C1(C#N)C#N (stereo not given) in the assay.
a: label 0

q: Name the outcome recorded for `Cc1ccc(/C=C/C(=O)Nc2ncc(Cc3ccc(F)cc3)s2)o1` in the assay.
a: label 0

q: Name the outcome recorded for `COc1ccc2nc(Cl)c(/C=C3\CC(c4ccccc4)=NN(c4ccccc4)C3=O)cc2c1` in the assay.
a: label 0

q: Name the outcome recorded for `O=C(CCCCCNC(=O)c1cc(=O)c(O)co1)Nc1ccccc1` in the assay.
a: label 0
